B1: FBXO33 (parent)
chain: RLRGLLRVLRGRPGAGSRRRGRMA

variants of: B1; assay: protein stability index of a GFP-peptide fusion (GPS, HEK-293T) (PSI 1-6); higher = more stable; conditions: c terminus: a fixed tail appended;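 also: lentivirally expressed fusions sorted by FACS into six bins by GFP to DsRed ratio, PSI derived from sequencing read proportions per bin multiplied by bin number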
Quick list: protein stability index per entry.

[
  {
    "mutation.name": "V8C",
    "protein stability index": 2.06
  },
  {
    "mutation.name": "L5N",
    "protein stability index": 4.52
  },
  {
    "mutation.name": "R1C",
    "protein stability index": 1.2
  },
  {
    "mutation.name": "P13Q",
    "protein stability index": 2.34
  },
  {
    "mutation.name": "G11E",
    "protein stability index": 1.83
  },
  {
    "mutation.name": "R19E",
    "protein stability index": 1.43
  },
  {
    "mutation.name": "A15Y",
    "protein stability index": 2.17
  },
  {
    "mutation.name": "R12Q",
    "protein stability index": 2.17
  },
  {
    "mutation.name": "V8T",
    "protein stability index": 1.81
  },
  {
    "mutation.name": "L5Y",
    "protein stability index": 3.49
  },
  {
    "mutation.name": "L9F",
    "protein stability index": 3.09
  },
  {
    "mutation.name": "R12I",
    "protein stability index": 1.06
  },
  {
    "mutation.name": "R19W",
    "protein stability index": 1.48
  },
  {
    "mutation.name": "L6V",
    "protein stability index": 2.77
  },
  {
    "mutation.name": "R19Q",
    "protein stability index": 1.75
  },
  {
    "mutation.name": "L6A",
    "protein stability index": 3.57
  },
  {
    "mutation.name": "G11I",
    "protein stability index": 2.77
  },
  {
    "mutation.name": "P13D",
    "protein stability index": 2.01
  },
  {
    "mutation.name": "G4D",
    "protein stability index": 1.88
  },
  {
    "mutation.name": "L5C",
    "protein stability index": 3.17
  },
  {
    "mutation.name": "L6C",
    "protein stability index": 2.07
  },
  {
    "mutation.name": "A24I",
    "protein stability index": 1.46
  },
  {
    "mutation.name": "L5P",
    "protein stability index": 4.32
  },
  {
    "mutation.name": "G14W",
    "protein stability index": 2.76
  },
  {
    "mutation.name": "M23N",
    "protein stability index": 2.02
  },
  {
    "mutation.name": "R12A",
    "protein stability index": 3.08
  },
  {
    "mutation.name": "R20E",
    "protein stability index": 2.29
  },
  {
    "mutation.name": "A24R",
    "protein stability index": 2.63
  },
  {
    "mutation.name": "A24F",
    "protein stability index": 2.73
  },
  {
    "mutation.name": "A24W",
    "protein stability index": 2.42
  },
  {
    "mutation.name": "L9Q",
    "protein stability index": 3.39
  },
  {
    "mutation.name": "L9T",
    "protein stability index": 4
  },
  {
    "mutation.name": "R7W",
    "protein stability index": 1.69
  },
  {
    "mutation.name": "M23P",
    "protein stability index": 1.58
  },
  {
    "mutation.name": "P13V",
    "protein stability index": 2.68
  },
  {
    "mutation.name": "R7S",
    "protein stability index": 2.83
  },
  {
    "mutation.name": "G4C",
    "protein stability index": 1.45
  },
  {
    "mutation.name": "L6G",
    "protein stability index": 4.8
  },
  {
    "mutation.name": "G16S",
    "protein stability index": 1.5
  },
  {
    "mutation.name": "L9W",
    "protein stability index": 2.83
  },
  {
    "mutation.name": "G21C",
    "protein stability index": 1.39
  },
  {
    "mutation.name": "R18P",
    "protein stability index": 1.08
  },
  {
    "mutation.name": "R18I",
    "protein stability index": 1.72
  },
  {
    "mutation.name": "R18Q",
    "protein stability index": 2.83
  },
  {
    "mutation.name": "P13F",
    "protein stability index": 2.1
  },
  {
    "mutation.name": "V8W",
    "protein stability index": 1.87
  }
]
